test: Confirmation screen for delayed death inhibitors of the malarial parasite plastid, 96 hour incubation; note: nearly all actives have a fitted effect of over 60% in size; conditions: P. falciparum luciferase growth in erythrocytes; series mostly up to 28.7 µM
In all, about 2,300 compounds went through this assay and about 1,400 (61%) were called active. Inconclusive results (about 29%) are left out. Calls come from the whole dose curve; as a rule, active = well fitted inhibition curve with a large enough effect; inconclusive = small, poorly fitted or top-dose-only effect, or effect the other way; inactive = no such curve, though single readings can be large or run the other way. The set was probably picked from earlier hits. This is one part of the list.
// allowed return values: Yes (active), No (inactive)

Some entries whose results are on file:
1. CCc1ccc(/C=C/c2c[nH]c3ccccc23)[n+](CC)c1 | Yes
2. COc1ccc(Nc2cccc(Cl)c2)c(C(=O)O)c1 | No
3. O=C(CSc1nc2c(sc3ccccc32)c(=O)n1-c1ccccc1)NCc1ccco1 | Yes
4. COc1cc2c(cc1OC)CN(C(=O)c1cccc(S(=O)(=O)N3CCc4ccccc43)c1)CC2 | Yes

Ask: Please share the test call associated with COC(=O)C1=C(C)N(CC2CC2)C(=NCc2cc(OC)c(OC)c(OC)c2)N[C@H]1c1ccccc1 .
Reply: Yes

Ask: Please share the test call associated with CN(CCCNC(=O)c1ccc(CS(=O)c2ccc(Br)cc2)o1)Cc1ccccc1 (stereo unspecified) .
Reply: Yes

Ask: Please share the test call associated with CN(CCNC(=O)c1ccc(CS(=O)(=O)c2ccc(Br)cc2)o1)CCc1ccccc1 .
Reply: Yes

Ask: Please share the test call associated with O=C(c1cccc(S(=O)(=O)N2CCc3ccccc32)c1)N1CCN(c2ccccc2)CC1 .
Reply: Yes
